B1: GFOD1 (parent)
chain: SDDFCTFQMVLEGGVCCTVTLNFN

Variants of: B1
METHOD_DESCRIPTION: protein stability index of a GFP-peptide fusion (GPS, HEK-293T) (PSI 1-6); higher = more stable;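 note: lentivirally expressed fusions sorted by FACS into six bins by GFP to DsRed ratio, PSI derived from sequencing read proportions per bin multiplied by bin number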
TEST_PARAMETERS: c terminus: a fixed tail appended
RECORDED_METRIC: protein stability index
The answer should be written as a number, with no unit following it.

### Prompt Identify measured protein stability index corresponding to `C17W`
### Response 2.79

### Prompt Identify measured protein stability index corresponding to `N24T`
### Response 2.47

### Prompt Identify measured protein stability index corresponding to `C17E`
### Response 1.21

### Prompt Identify measured protein stability index corresponding to `T20W`
### Response 2.71

### Prompt Identify measured protein stability index corresponding to `N24S`
### Response 2.05

### Prompt Identify measured protein stability index corresponding to `S1Y`
### Response 3.3

### Prompt Identify measured protein stability index corresponding to `V19C`
### Response 3.15

### Prompt Identify measured protein stability index corresponding to `E12C`
### Response 2.46

### Prompt Identify measured protein stability index corresponding to `C5K`
### Response 2.39

### Prompt Identify measured protein stability index corresponding to `C16V`
### Response 2.46

### Prompt Identify measured protein stability index corresponding to `D3G`
### Response 3.28

### Prompt Identify measured protein stability index corresponding to `G13D`
### Response 3.2

### Prompt Identify measured protein stability index corresponding to `G13M`
### Response 2.94

### Prompt Identify measured protein stability index corresponding to `V10N`
### Response 1.83

### Prompt Identify measured protein stability index corresponding to `T18R`
### Response 1.48

### Prompt Identify measured protein stability index corresponding to `V19A`
### Response 1.95

### Prompt Identify measured protein stability index corresponding to `N24Q`
### Response 1.99

### Prompt Identify measured protein stability index corresponding to `S1R`
### Response 2.98

### Prompt Identify measured protein stability index corresponding to `V15L`
### Response 4.13

### Prompt Identify measured protein stability index corresponding to `G14C`
### Response 2.19

### Prompt Identify measured protein stability index corresponding to `Q8K`
### Response 3.33

### Prompt Identify measured protein stability index corresponding to `C5D`
### Response 2.59

// data source = the supplement of paper PMC10567573
